System: ABUTH
Assay: Pre-emergence herbicidal activity, glasshouse pot test; further: key: 5=total damage to plant; 0=no damage to plant
Format: in vivo
Settings: rate 1000 g/Ha, evaluated after 13 days, scale 0-5
quantity: ABUTH damage score, application pre-emergence
Form rule: numeric answer, no unit written next to it.

>>> data_value("Cc1ccc(-c2cnc(N3C(=O)N(C)C(C)C3O)cc2C(F)(F)F)cn1 (stereo not shown)")
5

The value of ABUTH damage score, application pre-emergence measured for the molecule O=C1N2COCC2C(O)N1c1cc(C(F)(F)F)ccn1 (single isomer, unassigned) turned out to be 5

The value of ABUTH damage score, application pre-emergence measured for the molecule COCCOC1C(O)N(c2cc(C(F)(F)F)ccn2)C(=O)N1C (stereo not shown) turned out to be 5

The value of ABUTH damage score, application pre-emergence measured for the molecule CN1C(=O)N(c2cc(C(F)(F)F)ccn2)C(O)C1CC(F)(F)F (stereo not shown) turned out to be 0
